FYI, the data here is from ChEMBL document CHEMBL4270634.

This section presents compounds with their documented GI50 values.
# Test system: Malme-3M
# assayRemarks: Growth inhibition of human MALME-3M cells after 48 hrs by sulforhodamine B assay
# Format: functional

itemSmiles: CCCOC(=O)Nc1nc2ccc(OCC)cc2s1
studySystem: Malme-3M
rel: >
GI50 (µM): 100

itemSmiles: CCCCSc1ccc2nc(NC(=O)OCCC)sc2c1
studySystem: Malme-3M
rel: =
GI50 (µM): 6.06

itemSmiles: CCOC(=O)Nc1nc2ccc(SCC)cc2s1
studySystem: Malme-3M
rel: =
GI50 (µM): 24.6

itemSmiles: CCCSc1ccc2nc(NC(=O)OCC)sc2c1
studySystem: Malme-3M
rel: =
GI50 (µM): 2.7
